tested on: blackgrass; test: Test B pre/postemergence blackgrass; assay type: in vivo, Alopecurus myosuroides; conditions: Postemergence, Rate 125 g/ha; scale of 0 to 10 where 0 is no effect and 10 is complete control
readout-label: Blackgrass plant response rating
Answers are plain numbers.

Past entries and their recorded results:
# compound, Blackgrass plant response rating
data = [
    ("CC(C)N(C(=O)n1oc(=O)n(-c2cnn(C)c2)c1=O)c1ccc(F)cc1 [Compound 98]", 0),
    ("Cc1ccccc1Cn1c(=O)on(C(=O)N(c2ccc(Cl)cc2)C(C)C)c1=O [Compound 136]", 0),
    ("CC[C@@H](C)n1c(=O)on(C(=O)N(c2ccc(F)cc2F)C(C)C)c1=O [Compound 667]", 8),
    ("COC(=O)C(CCO)n1c(=O)on(C(=O)N(c2ccccc2)C(C)C)c1=O (stereo not drawn) [Compound 678]", 0),
    ("CC(C)N(C(=O)n1oc(=O)n(CCCl)c1=O)c1ccc(F)cc1 [Compound 148]", 7),
    ("Cc1nn(C)c(Cl)c1-n1c(=O)on(C(=O)N(c2ccc(F)cc2)C(C)C)c1=O [Compound 95]", 0),
]

For each of the compounds below, state Blackgrass plant response rating.
1. CC(C)N(C(=O)n1oc(=O)n(CCCC#N)c1=O)c1ccccc1 [Compound 674]
2. CC(C)N(C(=O)n1oc(=O)n(CC(=O)C2CCC2)c1=O)c1ccc(Cl)cc1 [Compound 643]
3. CC(C)N(C(=O)n1oc(=O)n(CC(F)F)c1=O)c1ccccc1 [Compound 746]

Output:
1: 7; 2: 0; 3: 7

###

Assign Plant response rating, Wheat to each entry below.
system: wheat; assay: Test B pre/postemergence wheat; assay type: in vivo, Triticum aestivum; settings: Preemergence, Rate 62 g/ha; scale 0 to 10 (0 no effect, 10 complete control)
Answers are plain numbers.

Past entries and their recorded results:
# compound, readout-label, reported-measurement
data = [
    ("CC(C)N(C(=O)n1oc(=O)n(C)c1=O)c1ccccc1 [Compound 409]", "Plant response rating, Wheat", 4),
    ("CC(C)N(C(=O)n1oc(=O)n(CC#N)c1=O)c1ccc(F)cc1F [Compound 431]", "Plant response rating, Wheat", 0),
    ("CSCCn1c(=O)on(C(=O)N(c2ccccc2)C(C)C)c1=O [Compound 419]", "Plant response rating, Wheat", 0),
    ("CC(C)N(C(=O)n1oc(=O)n(CCCC(F)(F)F)c1=O)c1ccc(F)cc1 [Compound 398]", "Plant response rating, Wheat", 0),
    ("CC(C)N(C(=O)n1oc(=O)[nH]c1=O)c1ccc(F)cc1F [Compound 391]", "Plant response rating, Wheat", 0),
]

Task: Supply Plant response rating, Wheat measured with wheat for CC(C)N(C(=O)n1oc(=O)n(C(C)Cl)c1=O)c1ccc(F)cc1 (stereo not drawn) [Compound 393] .
Output: 0

###

system: bamyardgrass; assay: Test B flood test barnyardgrass; assay type: in vivo, Echinochloa crus-galli; conditions: Postemergence, Rate 62 g/ha; scale 0 to 10, 0 is no effect, 10 is complete control
Please provide measured Barnyardgrass plant response rating for the entries that follow.
Give bare numbers.

Worked examples follow.
# smiles-code, readout-label, reported-measurement
rows = [
    ("CCn1c(=O)on(C(=O)N(c2ccc(F)cc2F)C(C)C)c1=O", "Barnyardgrass plant response rating", 0),
    ("CCN(CC)C(=O)n1oc(=O)n(Cc2ccccc2C)c1=O", "Barnyardgrass plant response rating", 0),
    ("CCN(C(=O)n1oc(=O)n(Cc2cccs2)c1=O)C1CCCCC1", "Barnyardgrass plant response rating", 0),
    ("Cc1cccc(C)c1-n1c(=O)on(C(=O)N(c2ccc(F)cc2F)C(C)C)c1=O", "Barnyardgrass plant response rating", 5),
    ("Cc1ccccc1-n1c(=O)on(C(=O)N(c2cc(F)ccc2F)C(C)C)c1=O", "Barnyardgrass plant response rating", 0),
]

# evaluate next
Task: Annotate the compound `CC(C)N(C(=O)n1oc(=O)n(-c2cnn(C)c2Cl)c1=O)c1ccccc1` with its measured Barnyardgrass plant response rating.
Output: 0
